Data provenance is patent US8586768B2.

- assayed.target: JNK3 (Homo sapiens, UniProt P53779)
- Construct: purchased Signal Chem (Richmond, BC, Canada)
- Sequence (P53779 whole entry): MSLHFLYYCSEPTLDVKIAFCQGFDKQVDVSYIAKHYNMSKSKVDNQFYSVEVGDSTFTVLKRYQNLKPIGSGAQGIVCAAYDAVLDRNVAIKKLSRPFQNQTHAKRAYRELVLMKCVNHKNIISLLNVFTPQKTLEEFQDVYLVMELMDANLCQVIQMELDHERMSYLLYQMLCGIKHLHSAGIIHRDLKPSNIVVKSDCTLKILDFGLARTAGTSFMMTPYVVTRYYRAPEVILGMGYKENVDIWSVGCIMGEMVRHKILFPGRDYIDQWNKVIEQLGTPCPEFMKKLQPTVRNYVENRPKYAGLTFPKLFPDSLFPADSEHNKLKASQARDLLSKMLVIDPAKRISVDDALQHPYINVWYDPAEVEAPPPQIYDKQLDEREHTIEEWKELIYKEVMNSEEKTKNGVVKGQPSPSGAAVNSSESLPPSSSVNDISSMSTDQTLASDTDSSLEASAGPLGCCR
- assay.overview: In-vitro kinase profiling, radioisotope screening assay (Signal Chem)
- Type: biochemical
- assay.context: 5 μM compound, 50 μM ATP, vs vehicle control; negative = inhibition
value.type: % activity change (%)
Numeric answer only, unit % assumed.

Solved entries (count: 3):
>  <molecule>
CC1(C)C=Cc2c(O)cc(O)c(C(=O)/C=C/c3ccccc3)c2O1 [PK302]

>  <% activity change [%]>
−10

$$$$
>  <molecule>
Oc1cc(O)c(Cc2c(O)cc(O)cc2O)c(O)c1 [PK103]

>  <% activity change [%]>
−12

$$$$
>  <molecule>
CC(=O)c1c(O)c(C)c(O)c(Cc2c(O)c3c(c4c2OC(c2ccccc2)CC4=O)OC(C)(C)C=C3)c1O (stereo not shown) [PK202]

>  <% activity change [%]>
−12

$$$$

Proceed to the following item.
I have this molecule here, CC(=O)c1c(O)c(C)c(O)c(Cc2c(O)c3c(c(C(=O)/C=C/c4ccccc4)c2O)OC(C)(C)C=C3)c1O [Rottlerin] , and I need its recorded % activity change.
7
